Tested on: MYB mRNA
Experiment: Splicing RT-qPCR assay, MYB canonical (CJ) and alternative (AJ) junction mRNA
Type: cell-based
Conditions: Homo sapiens; Table 7; IC50 = 50% response in CJ mRNA decrease; RT-qPCR, A673 or K562 cells, 24 hours treatment; read-out: MYB CJ
Experimental endpoint: IC50

Below are worked cases with known answers.
1. Cn1cc2cc(-c3cc4cn(C5=CCOCC5)nc4s3)cc(F)c2n1 > 10 µM
2. Cn1cc2cc(-c3nc4sc(N5CCNC6(CC6)C5)cc4s3)cc(F)c2n1 1 to 10 µM
3. COc1c(-c2nc3sc(C4CCNCC4)cc3s2)cc(F)c2nn(C)cc12 1 to 10 µM

Turning to the following compound.
I looked up CN(c1cc2nn(-c3ccc(-c4cn[nH]c4)cc3O)cc2s1)[C@@H]1C[C@H]2CC[C@@H](C1)N2 and its IC50 for MYB mRNA was > 10 µM
